Target: pirin (Homo sapiens, UniProt O00625)
Assay: ITC
Type: binding
Metric Name: pKd
The value called pKd is obtained by taking minus log10 of the concentration in mol/L.

Return reported pKd; argument: O=C(Nc1ccc(Cl)cc1)C1CN(C(=O)c2cc(F)cc(-c3ccncc3)c2)CC(F)(F)C1 (stereo not shown) [CCG-257081]
5.07

====

Biological target: pirin (Homo sapiens, UniProt O00625)
Sequence (O00625 1-290): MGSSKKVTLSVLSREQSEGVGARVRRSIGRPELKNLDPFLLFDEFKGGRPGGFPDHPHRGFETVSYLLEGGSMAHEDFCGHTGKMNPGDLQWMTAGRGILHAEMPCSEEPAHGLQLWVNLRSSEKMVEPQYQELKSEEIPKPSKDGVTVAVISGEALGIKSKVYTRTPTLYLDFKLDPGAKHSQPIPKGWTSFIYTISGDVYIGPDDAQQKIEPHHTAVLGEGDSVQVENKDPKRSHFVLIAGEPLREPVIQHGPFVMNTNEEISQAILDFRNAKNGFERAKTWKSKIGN
Assay: ITC
Type: binding
Metric Name: Kd (µM)
The figure you give is taken to be in µM; do not add the unit.

Name the reported Kd value associated with the molecule O=C(Nc1ccc(Cl)cc1)C1CN(C(=O)c2cccc(-c3ccco3)c2)CC(F)(F)C1 (racemic)
4.3
